Reported IC50 is given for each of the following molecules.
- System: 92.1 cells (GNAQ Q209L mutation)
- PROCEDURE_SUMMARY: Cell proliferation inhibition assay
- Assay type: cell-based
- REPORTED_CONDITIONS: 72 h, read-out: Antiproliferation (IC50, μmol/L) 92.1
Respond with the bare value in µmol/L.

1. CN1CCC[C@H]1CN1CCn2cc(-c3ccccc3)nc2[C@@H]1CC1CCCCC1 [GQ262]; 10.4

API: the following record is the query input.
Query: Consider the molecule CC(C)(C)[C@H](N)CN1CCn2cc(-c3ccccc3)nc2[C@@H]1CC1CCCCC1 [GQ243] and give its measured IC50.
Reply: 9.6

* * *

- PROCEDURE_SUMMARY: Human liver microsome stability assay
- Assay type: in vitro ADME
- REPORTED_CONDITIONS: liver microsomes, pH 7.4
RECORDED_METRIC: CLint scaled at 1 μmol/L (mL/min/kg)
Respond with the bare value in mL/min/kg.

Query: Consider the compound CN1CCC[C@H]1CN1CCn2cc(-c3ccccc3)nc2[C@@H]1CC1CCCCC1 and give its measured CLint scaled at 1 μmol/L.
Reply: 30.2

* * *

- PROCEDURE_SUMMARY: Pharmacokinetic studies in ICR mice
- Format: in vivo
- REPORTED_CONDITIONS: male, mouse, plasma, iv, 5 mg/kg
RECORDED_METRIC: AUC (ng·h/mL)
Respond with the bare value in ng·h/mL.

Query: Consider the molecule CN1CCC[C@H]1CN1CCn2cc(-c3ccccc3)nc2[C@@H]1CC1CCCCC1 and give its measured AUC.
Reply: 1620

* * *

- PROCEDURE_SUMMARY: Pharmacokinetic studies in ICR mice
- Type: in vivo
- REPORTED_CONDITIONS: male, mouse, plasma, iv, 5 mg/kg
RECORDED_METRIC: Vd (L/kg)
Respond with the bare value in L/kg.

Query: Consider the molecule CN1CCC[C@H]1CN1CCn2cc(-c3ccccc3)nc2[C@@H]1CC1CCCCC1 and give its measured Vd.
Reply: 3.9

* * *

- PROCEDURE_SUMMARY: Pharmacokinetic studies in ICR mice
- Format: in vivo
- REPORTED_CONDITIONS: male, mouse, plasma, iv, 5 mg/kg
RECORDED_METRIC: Tmax (min)
Respond with the bare value in min.

Query: Consider the molecule CN1CCC[C@H]1CN1CCn2cc(-c3ccccc3)nc2[C@@H]1CC1CCCCC1 and give its measured Tmax.
Reply: 4.8

* * *

Reported pIC50 is given for each of the following molecules.
- Test system: 92.1 cells (GNAQ Q209L mutation)
- PROCEDURE_SUMMARY: Cell proliferation inhibition assay
- Type: cell-based
- REPORTED_CONDITIONS: 72 h, read-out: Antiproliferation (IC50, μmol/L) 92.1
Notebook: values listed as pIC50 are -log10 of the concentration (mol/L).

1) N[C@@H](Cc1c[nH]cn1)CN1CCn2cc(-c3ccccc3)nc2[C@@H]1CC1CCCCC1 [GQ259]; 4.97

API: the following record is the query input.
Query: Consider the molecule c1ccc(-c2cn3c(n2)[C@H](CC2CCCCC2)N(C[C@@H]2CCCN2)CC3)cc1 [GQ260] and give its measured pIC50.
Reply: 4.94

* * *

- PROCEDURE_SUMMARY: Pharmacokinetic studies in ICR mice
- Format: in vivo
- REPORTED_CONDITIONS: male, mouse, plasma, po, 15 mg/kg
RECORDED_METRIC: half-life (h)
Respond with the bare value in h.

Query: Consider the compound CN1CCC[C@H]1CN1CCn2cc(-c3ccccc3)nc2[C@@H]1CC1CCCCC1 [GQ262] and give its measured half-life.
Reply: 2.4

Attribution: paper PMC9366314
